Where these numbers come from: patent US20250222125A1

# Study target: cyno FGFR2b protein (recombinant) (cyno, UniProt A0A2K5TL97 22-380)
# Experimental protocol: ELISA, plate-coated cyno FGFR2b
Reported metric: Emax (A450)
The response must be a number in A450 with no trailing unit.

Binder	Emax (A450)
BGAm1371 (antibody, V domains shown, assays detect or capture it with anti-human IgG; also called parental mouse clone; murine parental antibody of BGAh9179) VH: QVQLKQSGAELVKPGASVKLSCTASGFNIKDTYIHWVKQRPEQGLEWIGRIDPANGNTMFASEFQGKATITAYTSSNTAYMQLSSLTSGDTAVYYCARSKIHYDYDEGFAYWGQGTLVTVSS VL: NIVLTQSPPSLAVSLGQRATVSCRASESVDDYGYSFLHWYQQKPGQPPKLLIYRASNLESGIPARFSGSGSRTDFTLTINPVETDDVATYYCQQSNQNPRTFGGGTKLEIK	3.02
BGAm1823 (antibody, V domains shown, assays detect or capture it with anti-human IgG; also called murine parental antibody of BGAh9239) VH: EVQLQQSGAELVKPGASVKISCKASGYAFSIYWMNWVKQRPGKGLEWIGQIYPENGDTNYNGKFKGKATLTADKSSSTAYMHLSSLTSEDSAVYFCARGGFDYWGQGTTLTVSS VL: NIVMTQSPASLSASVGETVTITCRASENIYSNLAWYQQKQGKSPQLLVYTATNLADGVPSRFSGSGSGTQFSLKINSLQPEDFGSYYCQHFYGILYTFGSGTRLEIK	3
BGAh9239 (antibody, human IgG1, kappa, V domains shown, also called humanized antibody developed from BGAm1823) VH: QVQLVQSGAEVKKPGSSVKVSCKASGYTFSIYWLNWVRQAPGQGLEWMGQIYPENADTNYSGKFKGRVTITADKSTSTAYMELSSLRSEDTAVYFCARGGFDYWGQGTLVTVSS VL: DIQMTQSPSSLSASVGDRVTITCRASENIYSNLAWYQQKPGKAPKLLIYTATNLAEGVPSRFSGSGSGTDFTLTISSLQPEDFATYYCQHFYGILYTFGQGTRLEIKR	2.93

Prompt: Item BGAh9179 (antibody, human IgG1, kappa, V domains shown, also called BGA9179; humanized antibody developed from BGAm1371) VH: QVQLVQSGAEVKKPGASVKVSCKASGYTITDTYIHWVRQAPGQGLEWMGRIDPAEGNTMFASEFQGRVTMTADTSTSTVYMELSSLRSEDTAVYYCARSKIHYDYDEGFAYWGQGTLVTVSS VL: DIVLTQSPDSLAVSLGERATINCRASESVDDYGYSFLHWYQQKPGQPPKLLIYRASNLESGVPDRFSGSGSGTDFTLTISSLQAEDVAVYYCQQSNQNPRTFGGGTKVEIKR has what recorded Emax (A450)?
Response: 2.95
